# tested.system: Pantothenate synthetase (Mycobacterium tuberculosis (strain ATCC 25618 / H37Rv))
# assay.info: Coupled enzyme confirmation of inhibitors against recombinant Mtb PanC (AID 375);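 also: 0% = full reaction with vehicle and 100% = no enzyme background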
# recorded.conditions: coupled enzyme assay; at 10 µM, hits give high values

{"compound": "C=CCn1c(COc2ccccc2)nnc1SCC(=O)C(C)(C)C", "tested.system": "Pantothenate synthetase (Mycobacterium tuberculosis (strain ATCC 25618 / H37Rv))", "inhibition (%)": 0}
{"compound": "COc1cc(C)c(Br)cc1S(=O)(=O)N1CCOCC1", "tested.system": "Pantothenate synthetase (Mycobacterium tuberculosis (strain ATCC 25618 / H37Rv))", "inhibition (%)": 2}
{"compound": "NCCCCCc1nnc(SC/C=C/c2ccccc2)o1", "tested.system": "Pantothenate synthetase (Mycobacterium tuberculosis (strain ATCC 25618 / H37Rv))", "inhibition (%)": 0}
{"compound": "COCC(=O)N(c1ccc(C(C)C)cc1)C1C=CS(=O)(=O)C1 (stereo unspecified)", "tested.system": "Pantothenate synthetase (Mycobacterium tuberculosis (strain ATCC 25618 / H37Rv))", "inhibition (%)": 0}
{"compound": "O=C(NC1CCc2ccccc21)C1CCN(S(=O)(=O)c2ccc(-n3cnnn3)cc2)CC1 (stereo unspecified)", "tested.system": "Pantothenate synthetase (Mycobacterium tuberculosis (strain ATCC 25618 / H37Rv))", "inhibition (%)": 10}
{"compound": "CCOc1ccc(C(=O)N2CCC(C(=O)c3ccc4c(c3)OCCO4)CC2)cc1", "tested.system": "Pantothenate synthetase (Mycobacterium tuberculosis (strain ATCC 25618 / H37Rv))", "inhibition (%)": 7}
{"compound": "Nc1ccc(S(=O)(=O)Nc2ncccn2)cc1", "tested.system": "Pantothenate synthetase (Mycobacterium tuberculosis (strain ATCC 25618 / H37Rv))", "inhibition (%)": 6}
{"compound": "COCn1c(COc2ccccc2)nc2ccccc21", "tested.system": "Pantothenate synthetase (Mycobacterium tuberculosis (strain ATCC 25618 / H37Rv))", "inhibition (%)": 0}
{"compound": "Clc1ccc2c(c1)[C@H]1OCC[C@H]1[C@@H](c1ccco1)N2", "tested.system": "Pantothenate synthetase (Mycobacterium tuberculosis (strain ATCC 25618 / H37Rv))", "inhibition (%)": 3}
{"compound": "O=C(COC(=O)C1=COCCO1)Nc1ccccc1Oc1ccccc1", "tested.system": "Pantothenate synthetase (Mycobacterium tuberculosis (strain ATCC 25618 / H37Rv))", "inhibition (%)": 1}
{"compound": "Cc1cc(NC(=O)CSc2ccc3nnc(-c4cccc(F)c4)n3n2)no1", "tested.system": "Pantothenate synthetase (Mycobacterium tuberculosis (strain ATCC 25618 / H37Rv))", "inhibition (%)": 0}

###

# tested.system: Pantothenate synthetase (Mycobacterium tuberculosis (strain ATCC 25618 / H37Rv))
# assay.info: Coupled enzyme confirmation of inhibitors against recombinant Mtb PanC (AID 375);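 also: 0% = full reaction with vehicle and 100% = no enzyme background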
# recorded.conditions: coupled enzyme assay; at 10 µM, hits give high values
Reported inhibition values for a set of molecules

{"molecule": "CCc1nnc(NC(=O)c2ccc(COc3ccccc3)o2)s1", "inhibition / %": 6}
{"molecule": "C=CCN1C(=O)C2(C(C(=O)OCC)=C(N)Oc3c2c(=O)oc2ccccc32)c2ccccc21 (stereo unspecified)", "inhibition / %": 0}
{"molecule": "CCCC(=O)Nc1ccccc1-c1nnn(CC(=O)Nc2ccc(OCC)cc2)n1", "inhibition / %": 0}
{"molecule": "COc1ccc(CNC(=O)c2cc(-c3ccc(OC)c(OC)c3)on2)cc1", "inhibition / %": 3}
{"molecule": "CCCCn1nnc(NC(=O)Cc2ccc(Cl)cc2)n1", "inhibition / %": 0}
{"molecule": "CCC(=O)Nc1ccc2nc(SCC(=O)N3CCCC3)sc2c1", "inhibition / %": 0}
{"molecule": "COc1c2occc2c(OC)c2c(=O)cc(C)oc12", "inhibition / %": 8}
{"molecule": "O=C(CSc1nnc2scc(-c3ccccc3)n12)Nc1nsc(-c2ccccc2)n1", "inhibition / %": 1}
{"molecule": "COc1ccccc1Nc1nc(N)nc(-c2cc3ccccc3o2)n1", "inhibition / %": 0}
{"molecule": "CCN1CCCC1CNCc1ccc(Cl)cc1Cl (stereo unspecified)", "inhibition / %": 0}
{"molecule": "CC(C)c1nnc(NC(=O)Cc2cccs2)s1", "inhibition / %": 0}

###

inhibition reference
# tested.system: Pantothenate synthetase (Mycobacterium tuberculosis (strain ATCC 25618 / H37Rv)) (UniProt P9WIL5)
# Sequence (P9WIL5 whole entry, looked up): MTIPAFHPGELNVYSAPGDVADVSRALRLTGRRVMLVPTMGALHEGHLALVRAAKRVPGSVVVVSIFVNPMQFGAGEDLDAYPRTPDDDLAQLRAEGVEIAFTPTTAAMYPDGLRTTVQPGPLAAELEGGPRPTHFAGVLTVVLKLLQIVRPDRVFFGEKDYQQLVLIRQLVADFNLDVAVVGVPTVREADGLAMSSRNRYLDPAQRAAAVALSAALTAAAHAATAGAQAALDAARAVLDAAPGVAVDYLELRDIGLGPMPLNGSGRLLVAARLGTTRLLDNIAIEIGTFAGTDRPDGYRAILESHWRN
# assay.info: Coupled enzyme confirmation of inhibitors against recombinant Mtb PanC (AID 375);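 also: 0% = full reaction with vehicle and 100% = no enzyme background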
# recorded.conditions: coupled enzyme assay; at 10 µM, hits give high values

{"molecule": "CCOc1cc2[nH]c(=S)n(CCCC(=O)N3CCC4(CC3)OCCO4)c(=O)c2cc1OCC", "result.units": "%", "inhibition": 0}
{"molecule": "Cc1ccc(NC(=O)c2cc(-c3ccc(C)o3)nc3ccccc23)nc1", "result.units": "%", "inhibition": 0}
{"molecule": "Cc1nc2sc(C(c3ccc(Br)cc3)N3CC(C)OC(C)C3)c(O)n2n1 (stereo not given)", "result.units": "%", "inhibition": 0}
{"molecule": "COc1ccc(-c2nc(N3CCCC3)[nH]c(=O)c2C#N)cc1", "result.units": "%", "inhibition": 0}
{"molecule": "COc1ccc(-c2[nH]c(-c3cccc(OC)c3)nc2SCC(=O)NCc2ccco2)cc1", "result.units": "%", "inhibition": 1}
{"molecule": "CCN(CC)S(=O)(=O)c1ccc2oc(SCc3ccc(F)cc3)nc2c1", "result.units": "%", "inhibition": 5}
{"molecule": "Cc1ccc(S(=O)(=O)c2cc3c(=O)n4ccccc4nc3n(CC3CCCO3)c2=N)cc1C (stereo not given)", "result.units": "%", "inhibition": 0}
{"molecule": "CSc1nnc2n(CCc3ccccc3)c(=O)c3c4c(sc3n12)CCCC4", "result.units": "%", "inhibition": 2}
{"molecule": "CCN(CC(=O)Nc1ccc2c(c1)CCC2)Cc1nc2ccccc2c(=O)[nH]1", "result.units": "%", "inhibition": 4}
{"molecule": "Cc1ccc(N2C(=O)c3oc4ccccc4c(=O)c3C2c2cccc(O)c2)nc1 (stereo not given)", "result.units": "%", "inhibition": 0}

###

# tested.system: Pantothenate synthetase (Mycobacterium tuberculosis (strain ATCC 25618 / H37Rv)) (UniProt P9WIL5)
# assay.info: Coupled enzyme confirmation of inhibitors against recombinant Mtb PanC (AID 375);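 also: 0% = full reaction with vehicle and 100% = no enzyme background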
# recorded.conditions: coupled enzyme assay; at 10 µM, hits give high values

{"compound": "Cn1c(COc2ccccc2)nnc1SCC(=O)Nc1ccc(N2CCOCC2)c(Cl)c1", "result.units": "%", "inhibition": 6}
{"compound": "CCCCn1c(CN(C)Cc2ccccc2)nc2c1c(=O)n(C)c(=O)n2C", "result.units": "%", "inhibition": 0}
{"compound": "O=C(CSc1nc2c(sc3ccccc32)c(=O)n1Cc1ccco1)NCC1CCCO1 (stereo not given)", "result.units": "%", "inhibition": 2}
{"compound": "CCC(C)NC(=O)c1c(N)n(CC2CCCO2)c2nc3ccccc3nc12 (stereo not given)", "result.units": "%", "inhibition": 0}
{"compound": "CCCCSCCCNC(=O)CS(=O)Cc1nc(-c2cccc(C)c2)oc1C (stereo not given)", "result.units": "%", "inhibition": 6}
{"compound": "CC(C)Cc1nnc(NC(=O)CCC(=O)N2CCOCC2)s1", "result.units": "%", "inhibition": 0}
{"compound": "COC(=O)c1ccccc1NC(=O)c1ccc(-c2ccccc2F)o1", "result.units": "%", "inhibition": 0}
{"compound": "COc1c(C(=O)Nc2c(C)n(C)n(-c3ccccc3)c2=O)ccc2ccccc12", "result.units": "%", "inhibition": 0}
{"compound": "C=CCn1c(SCC2=C(C(=O)OCC)C(C)NC(=O)N2)nnc1C1CCCCC1 (stereo not given)", "result.units": "%", "inhibition": 0}
{"compound": "Cc1ccc(OCc2nnc(SCC(=O)Nc3ccc4c(c3)OCO4)n2C)cc1", "result.units": "%", "inhibition": 0}

###

# tested.system: Pantothenate synthetase (Mycobacterium tuberculosis (strain ATCC 25618 / H37Rv))
# assay.info: Coupled enzyme confirmation of inhibitors against recombinant Mtb PanC (AID 375);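 also: 0% = full reaction with vehicle and 100% = no enzyme background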
# recorded.conditions: coupled enzyme assay; at 10 µM, hits give high values

{"compound": "COc1ccc(OCC(O)Cn2c(Br)nc3c2c(=O)[nH]c(=O)n3C)cc1 (configuration not stated)", "inhibition [%]": 11}
{"compound": "COc1cccc(CNC(=O)Cn2c(=O)oc3ccccc32)c1OC", "inhibition [%]": 0}
{"compound": "COC(=O)c1cc2ccsc2n1CC(=O)Nc1cc(C)cc(C)c1", "inhibition [%]": 0}
{"compound": "Cc1ccccc1-n1c(Cn2c(=O)sc3ccccc32)nnc1SCC(N)=O", "inhibition [%]": 3}
{"compound": "Cc1ccc(S(=O)(=O)N2CCC(C(=O)NCCN3CCCCCC3)CC2)cc1", "inhibition [%]": 0}
{"compound": "O=C(CCN1CCc2ccccc2C1)Nc1ccc2c(c1)OCO2", "inhibition [%]": 0}
{"compound": "Cc1ccc(CN2CCN(C(=O)C3CCC3)CC2)cc1", "inhibition [%]": 3}
{"compound": "O=C(Cn1c(=O)[nH]c2ccsc2c1=O)N1CCN(c2ccc(F)cc2)CC1", "inhibition [%]": 0}
{"compound": "O=C(Nc1sccc1C(=O)NCc1ccco1)c1cccnc1", "inhibition [%]": 5}
{"compound": "CCOC(=O)c1ccc(NS(=O)(=O)c2ccc3c(c2)oc(=O)n3C)cc1", "inhibition [%]": 0}
{"compound": "Cc1nc(-c2cnn(-c3ccccc3)c2)c2cc(C)oc2n1", "inhibition [%]": 2}
{"compound": "CN1CCN(Cc2nc3c(c(=O)n(C)c(=O)n3C)n2Cc2ccccc2Cl)CC1", "inhibition [%]": 0}
{"compound": "O=C1CCc2nc3sc4c(c3c(=O)n2N1)CCCC4", "inhibition [%]": 0}
{"compound": "Cc1cc(C)c2ccc(N)nc2c1O", "inhibition [%]": 0}
{"compound": "COc1ccc2[nH]c(=O)c(CN(Cc3cccs3)S(=O)(=O)c3cccc4nsnc34)cc2c1", "inhibition [%]": 0}
{"compound": "Cc1nc2sc3c(c2c(=O)o1)CCC3", "inhibition [%]": 2}
{"compound": "CC1(C)CC(CCNC(=O)c2ccco2)CC(C)(C)N1", "inhibition [%]": 0}
{"compound": "COc1ccccc1-n1c(-c2cccnc2)n[nH]c1=S", "inhibition [%]": 0}
{"compound": "O=C(NC1CCCc2ccccc21)C1CCN(c2nnc(-n3cccc3)s2)CC1 (configuration not stated)", "inhibition [%]": 0}
{"compound": "COc1ccc(OCC(=O)N2CCN(C(=O)Cc3ccccc3)CC2)cc1", "inhibition [%]": 0}
{"compound": "Cc1[nH]c2c(Cl)cccc2c1CCN", "inhibition [%]": 0}
{"compound": "CCn1c(CSc2ncccn2)nnc1SCC(=O)N1c2ccccc2CC1C (configuration not stated)", "inhibition [%]": 6}
{"compound": "COc1ccc(Nc2ncnc3c2cnn3-c2ccccc2)cc1OC", "inhibition [%]": 1}
{"compound": "COc1cccc(C2=NOC(C(=O)N3CCc4ccccc4C3)C2)c1 (configuration not stated)", "inhibition [%]": 0}
{"compound": "O=C(c1cccc2ccccc12)N1CCC(N2CCN(c3ccccc3)CC2)CC1", "inhibition [%]": 0}
{"compound": "Cc1cc(/N=C/N(C)C)on1", "inhibition [%]": 0}
{"compound": "CCC(C)(C(=O)NC1CCCC1)N(C(=O)c1cnccn1)c1c(C)n(C)n(-c2ccccc2)c1=O (configuration not stated)", "inhibition [%]": 0}
{"compound": "O=C(CCN1CCOCC1)Nc1cccc(Br)c1", "inhibition [%]": 10}
{"compound": "Cc1ccc(-n2ncc3c(N4CCN(c5ccccc5)CC4)ncnc32)c(C)c1", "inhibition [%]": 0}
{"compound": "Cc1ccccc1NC1=NCCCS1", "inhibition [%]": 3}
{"compound": "Cn1c([N+](=O)[O-])cnc1COC(N)=O", "inhibition [%]": 0}
{"compound": "CCOC(=O)C1=C(C)Nc2ncnn2C1c1cc(OC)ccc1OC (configuration not stated)", "inhibition [%]": 0}
{"compound": "COc1ccc(NC(=O)CCS(=O)(=O)c2ccc(OC)cc2)cc1", "inhibition [%]": 0}
{"compound": "CCOc1cc(C(=O)N(C)Cc2cc3cc(OC)ccc3[nH]c2=O)cc(OCC)c1OCC", "inhibition [%]": 0}
{"compound": "CC(=O)Nc1cccc(NC(=O)CSc2nnnn2C)c1", "inhibition [%]": 0}
{"compound": "CCOc1ccc(CN2C(=O)c3ccccc3C2C(=O)NCc2cccnc2)cc1 (configuration not stated)", "inhibition [%]": 0}
{"compound": "CCn1cnc2sc(C(=O)Nc3ccc4c(c3)OCO4)c(C)c2c1=O", "inhibition [%]": 4}
{"compound": "COc1ccccc1OCc1ccc(C(=O)NC(C)(C)C)o1", "inhibition [%]": 2}
{"compound": "CC(C)OC(=O)CSc1nc2cccnc2n1C1CCCCC1", "inhibition [%]": 4}
{"compound": "CCn1c(SCC(N)=O)nnc1-c1ccc(S(=O)(=O)N2CCN(C)CC2)cc1", "inhibition [%]": 0}
{"compound": "Cn1cnc2c(N3CCCCC3)nccc21", "inhibition [%]": 0}
{"compound": "Cc1n[nH]c(C)c1N1C(=O)c2cccc3cc(Br)cc(c23)C1=O", "inhibition [%]": 6}
{"compound": "CCC(Sc1nc2sc(C(=O)OC)c(C)c2c(=O)n1N)C(=O)NCC1CCCO1 (configuration not stated)", "inhibition [%]": 4}
{"compound": "CC1=C(C(=O)Nc2ccccc2)C(c2ccccn2)n2nc(CCCO)nc2N1 (configuration not stated)", "inhibition [%]": 7}
{"compound": "Clc1cccc(Cl)c1COc1ccncc1", "inhibition [%]": 0}
{"compound": "O=c1[nH]c2sc3c(c2c2nncn12)CCCC3", "inhibition [%]": 0}
{"compound": "Cc1cccc(NC(=O)c2ccc3ccccc3n2)n1", "inhibition [%]": 0}
